The measurements presented in this section are drawn from ChEMBL document CHEMBL1811814.

system: OVCAR-8; test: Growth inhibition of human OVCAR8 cells assessed tumor cell growth at 10^-5 M; assay type: functional; design: scale not given: the % may be the effect or the level left
REPORTED_ENDPOINT: Activity (%)
Write the value in % as a bare number.

query: Fill in Activity for CC1=NN(c2cccc(Cl)c2)C(=O)/C1=C\c1cn(Cc2ccccc2)c2ccccc12 tested with OVCAR-8.
result: 97.42

query: // fetch Activity; item: CN1C(=O)C(=Cc2coc3ccccc3c2=O)C(=O)N(C)C1=O ; system: OVCAR-8
result: 86.75

query: GET Activity | system: OVCAR-8 | item: O=C1/C(=C\c2cn(C(=O)c3c(Cl)cccc3Cl)c3ccccc23)c2ccccc2N1C(=O)c1c(Cl)cccc1Cl
result: 94.1

---

test system: MDA-MB-435; experiment: Growth inhibition of human MDA-MB-435 cells assessed tumor cell growth at 10^-5 M; assay type: functional; parameters: scale not given: the % may be the effect or the level left
REPORTED_ENDPOINT: Activity (%)
A number alone suffices; assume %.

query: # lookup: MDA-MB-435 Activity, key = CC1=NN(c2cccc(Cl)c2)C(=O)/C1=C\c1cn(S(=O)(=O)c2ccc(C)cc2)c2ccccc12
result: 105.48

query: Would you please give the reported Activity of O=C1Nc2ccccc2/C1=C/c1cn(C(=O)c2c(Cl)cccc2Cl)c2ccccc12 with MDA-MB-435?
result: 85.6

query: Using MDA-MB-435 as the test system, report measured Activity of O=C1/C(=C\c2cn(C(=O)c3ccccc3)c3ccccc23)c2ccccc2N1c1c(Cl)cccc1Cl .
result: 115.5

query: For MDA-MB-435, give the measured Activity of the entry C=CCn1cc(/C=C2\C(=O)N(c3c(Cl)cccc3Cl)c3ccccc32)c2ccccc21
result: 100.8

query: Provide the reported Activity (system: MDA-MB-435) for O=C1/C(=C\c2ccccn2)c2ccccc2N1c1c(Cl)cccc1Cl
result: -5.05

query: Write down measured Activity (MDA-MB-435) for this molecule. CC1=NN(c2cccc(Cl)c2)C(=O)/C1=C\c1cn(C(=O)c2c(Cl)cccc2Cl)c2ccccc12
result: 109.08

query: Look up MDA-MB-435 data: Activity of O=C1/C(=C\c2cn(C(=O)c3ccc(Cl)cc3)c3ccccc23)c2ccccc2N1C(=O)c1ccc(Cl)cc1 , then report it.
result: 97.5

query: State, for MDA-MB-435, measured Activity of the molecule listed here: O=C1/C(=C\c2coc3ccccc3c2=O)c2ccccc2N1c1c(Cl)cccc1Cl
result: 14.46

query: Give reported Activity for C=CCn1cc(/C=C2\C(=O)N(c3cccc(Cl)c3)N=C2C)c2ccccc21 (MDA-MB-435)
result: 84.21

query: Look up and report measured Activity (MDA-MB-435) for the following molecule: O=C1/C(=C\c2cn(Cc3ccccc3)c3ccccc23)c2ccccc2N1Cc1ccccc1
result: 110.5

query: Using MDA-MB-435 as the test system, report measured Activity of Cc1ccc(S(=O)(=O)n2cc(/C=C3\C(=O)Nc4ccccc43)c3ccccc32)cc1 .
result: 93.2

query: Give reported Activity for Cc1ccc(S(=O)(=O)n2cc(/C=C3\C(=O)N(c4c(Cl)cccc4Cl)c4ccccc43)c3ccccc32)cc1 (MDA-MB-435)
result: 99.2

query: Report the value of Activity obtained on MDA-MB-435 for O=C1C(=Cc2cn(Cc3ccccc3)c3ccccc23)C(=O)N(Cc2ccccc2)C(=O)N1Cc1ccccc1 .
result: 108.2

---

tested on: OVCAR-3; test: Growth inhibition of human OVCAR3 cells assessed tumor cell growth at 10^-5 M; format: functional; design: scale not given: the % may be the effect or the level left
REPORTED_ENDPOINT: Activity
Write your answer as a measured quantity: the number, then the unit.

query: Give the observed Activity of CC1=NN(c2cccc(Cl)c2)C(=O)/C1=C\c1c[nH]c2ccccc12 for OVCAR-3.
result: 105.19%

query: Find Activity for O=C1/C(=C\c2cn(Cc3ccccc3)c3ccccc23)c2ccccc2N1Cc1ccccc1 on OVCAR-3 and write it down.
result: 84.3%

query: # return Activity for O=C1C(=Cc2cn(Cc3ccccc3)c3ccccc23)C(=O)N(Cc2ccccc2)C(=O)N1Cc1ccccc1 , test system: OVCAR-3
result: 97.7%

query: Write down measured Activity (OVCAR-3) for this compound. O=C1/C(=C\c2cn(C(=O)c3c(Cl)cccc3Cl)c3ccccc23)c2ccccc2N1C(=O)c1c(Cl)cccc1Cl
result: 96.7%

query: Report value: Activity, system: OVCAR-3, compound: O=C1/C(=C\c2ccccn2)c2ccccc2N1c1c(Cl)cccc1Cl
result: 27.36%

query: Look up and report Activity, with OVCAR-3 as system, for C=CCn1cc(/C=C2\C(=O)N(c3c(Cl)cccc3Cl)c3ccccc32)c2ccccc21
result: 88.2%

query: Using OVCAR-3 as the test system, report measured Activity of CC1=NN(c2cccc(Cl)c2)C(=O)/C1=C\C=C\c1ccccc1 .
result: 103.59%

query: Report Activity on OVCAR-3 for this entry: CC1=NN(c2cccc(Cl)c2)C(=O)/C1=C\c1c(O)ccc2ccccc12
result: 63.18%

---

tested on: HT-29; assay: Growth inhibition of human HT-29 cells assessed tumor cell growth at 10^-5 M; format: functional; set-up: scale not given: the % may be the effect or the level left
REPORTED_ENDPOINT: Activity (%)
Report as a plain number; the unit % is understood.

query: Report Activity, nothing else, for this molecule: CN1C(=O)C(=Cc2coc3ccccc3c2=O)C(=O)N(C)C1=O
result: 112.32

query: Quote Activity reported for CC1=NN(c2cccc(Cl)c2)C(=O)/C1=C\c1ccccn1 please.
result: 114.19

query: Please give measured Activity of the following entry: CC1=NN(c2cccc(Cl)c2)C(=O)/C1=C\c1c(O)ccc2ccccc12
result: 13.48

---

test system: NCI-H522; assay: Growth inhibition of human NCI-H522 cells assessed tumor cell growth at 10^-5 M; type: functional; set-up: scale not given: the % may be the effect or the level left
REPORTED_ENDPOINT: Activity (%)
Give the quantity in %, number only.

query: // Input: CC1=NN(c2cccc(Cl)c2)C(=O)/C1=C\c1cn(C(=O)c2c(Cl)cccc2Cl)c2ccccc12 . Output its Activity only.
result: 87.52

query: Given O=C1/C(=C\c2cn(C(=O)c3ccccc3)c3ccccc23)c2ccccc2N1c1c(Cl)cccc1Cl , respond with its Activity.
result: 90.9

query: Indicate the recorded Activity value for this compound: O=C1/C(=C\c2cn(C(=O)c3c(Cl)cccc3Cl)c3ccccc23)c2ccccc2N1C(=O)c1c(Cl)cccc1Cl
result: 87.4

query: For the compound O=C1C(=Cc2cn(Cc3ccccc3)c3ccccc23)C(=O)N(Cc2ccccc2)C(=O)N1Cc1ccccc1 , give its measured Activity value.
result: 87.6

query: Give the measured Activity for CC1=NN(c2cccc(Cl)c2)C(=O)/C1=C\c1cn(Cc2ccccc2)c2ccccc12
result: 86.7

query: Return Activity (reported value) for this compound: Cc1ccc(S(=O)(=O)n2cc(/C=C3\C(=O)N(c4c(Cl)cccc4Cl)c4ccccc43)c3ccccc32)cc1
result: 91.5

query: Consider the compound C=CCn1cc(/C=C2\C(=O)N(c3c(Cl)cccc3Cl)c3ccccc32)c2ccccc21 . State its measured Activity.
result: 88.3

query: Input CC1=NN(c2cccc(Cl)c2)C(=O)/C1=C\c1cn(S(=O)(=O)c2ccc(C)cc2)c2ccccc12 , output reported Activity.
result: 107.2

query: Annotate the compound CC1=NN(c2cccc(Cl)c2)C(=O)/C1=C\c1ccccn1 with its measured Activity.
result: 104.42

query: Please give measured Activity of the following entry: CC1=NN(c2cccc(Cl)c2)C(=O)/C1=C\c1cn(C(=O)c2ccc(Cl)cc2)c2ccccc12
result: 100.77

---

test system: SF-295; assay: Growth inhibition of human SF295 cells assessed tumor cell growth at 10^-5 M; type: functional; set-up: scale not given: the % may be the effect or the level left
Answer each item with its documented Activity.
Express the result in % but write the number alone.

query: Provide only the value of recorded Activity for O=C1/C(=C\c2cn(C(=O)c3c(Cl)cccc3Cl)c3ccccc23)c2ccccc2N1C(=O)c1c(Cl)cccc1Cl
result: 90.6

query: Tell me measured Activity for C=CCn1cc(/C=C2\C(=O)N(c3cccc(Cl)c3)N=C2C)c2ccccc21 please.
result: 89.63

query: Return reported Activity. Input compound: Cc1ccc(S(=O)(=O)N2C(=O)/C(=C\c3cn(S(=O)(=O)c4ccc(C)cc4)c4ccccc34)c3ccccc32)cc1
result: 91.8
